Values compiled from BindingDB's records for doi:10.1111/cbdd.12089.

Target sequence: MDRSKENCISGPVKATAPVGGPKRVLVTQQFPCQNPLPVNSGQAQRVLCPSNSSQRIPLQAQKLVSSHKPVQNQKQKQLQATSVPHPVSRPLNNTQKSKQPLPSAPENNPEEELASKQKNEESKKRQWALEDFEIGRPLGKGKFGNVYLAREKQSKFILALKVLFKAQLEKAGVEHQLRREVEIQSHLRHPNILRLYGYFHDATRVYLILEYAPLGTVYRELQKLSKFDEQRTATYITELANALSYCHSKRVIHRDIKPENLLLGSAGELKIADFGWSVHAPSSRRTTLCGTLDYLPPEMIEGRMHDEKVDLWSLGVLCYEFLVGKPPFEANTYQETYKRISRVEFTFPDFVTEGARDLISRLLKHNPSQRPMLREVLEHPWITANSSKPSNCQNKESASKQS
Measure: pIC50
Please keep in mind that pIC50 is minus log10 of the molar concentration; only the number is needed.

Kindly note the recorded pIC50 for Cc1ccc(Nc2ncnc3cc(OCCCN4CCCC4)ccc23)cc1Nc1ncc(-c2cccnc2)cn1 [4-Aminoquinazoline derivative, 6d] , which is 7.11
